assay: Stability of compound in hamster liver microsomes assessed as percentage of parent compound remaining at 1 uM measured after 1 hr; details: chinese hamster
Each item that follows carries a reported remaining at 1 h, 1 µM.
// note: answer is a bare numeric in %

# count of solved cases: 4
- COMPOUND: "CC1(COc2ncc(C(F)(F)F)cc2F)CCn2cc([N+](=O)[O-])nc2O1 (stereo not given)"
  ATTRIBUTE MEASURED: "remaining at 1 h, 1 µM"
  UNIT NAME: "%"
  NUMERIC READOUT: 0.4
- COMPOUND: "CC1(COc2ncc(C(F)(F)F)cn2)CCn2cc([N+](=O)[O-])nc2O1 (stereo not given)"
  ATTRIBUTE MEASURED: "remaining at 1 h, 1 µM"
  UNIT NAME: "%"
  NUMERIC READOUT: 40
- COMPOUND: "CC1(COc2cnc(C(F)(F)F)cn2)CCn2cc([N+](=O)[O-])nc2O1 (stereo not given)"
  ATTRIBUTE MEASURED: "remaining at 1 h, 1 µM"
  UNIT NAME: "%"
  NUMERIC READOUT: 36
- COMPOUND: "CC1(COc2ncc(C(F)(F)F)cc2Cl)CCn2cc([N+](=O)[O-])nc2O1 (stereo not given)"
  ATTRIBUTE MEASURED: "remaining at 1 h, 1 µM"
  UNIT NAME: "%"
  NUMERIC READOUT: 0

Turning now to a further record.
Incoming: For the compound CC1(COc2ccc(C(F)(F)F)nn2)CCn2cc([N+](=O)[O-])nc2O1 (stereo not given) , what remaining at 1 h, 1 µM is on record?
Outgoing: 58

---

assay: Stability of compound in CD-1 mouse liver microsomes assessed as percentage of parent compound remaining at 1 uM measured after 1 hr
Each entry below lists one item and its recorded remaining at 1 h, 1 µM value.
Just the number please, in %, no unit attached.

- COMPOUND: "CC1(COc2ncc(C(F)(F)F)cc2Cl)CCn2cc([N+](=O)[O-])nc2O1 (stereo not given)"
  remaining at 1 h, 1 µM / %: 14
- COMPOUND: "CC1(COc2cnc(C(F)(F)F)cn2)CCn2cc([N+](=O)[O-])nc2O1 (stereo not given)"
  remaining at 1 h, 1 µM / %: 90
- COMPOUND: "CC1(COc2ccc(C(F)(F)F)nn2)CCn2cc([N+](=O)[O-])nc2O1 (stereo not given)"
  remaining at 1 h, 1 µM / %: 89
- COMPOUND: "CC1(COc2ncc(C(F)(F)F)cn2)CCn2cc([N+](=O)[O-])nc2O1 (stereo not given)"
  remaining at 1 h, 1 µM / %: 86

API: the following record is the query input.
Incoming: Data request, read-out remaining at 1 h, 1 µM, for CC1(COc2ncc(C(F)(F)F)cc2F)CCn2cc([N+](=O)[O-])nc2O1 (stereo not given)
Outgoing: 44

---

Consider the following molecules and their measured inhibition in vivo at 50 mg/kg readings.
test system: Leishmania donovani; assay: Antileishmanial activity against Leishmania donovani amastigotes infected in BALB/C mouse assessed as reduction in parasite burden in liver tissue at 50 mg/kg, po administered once per day for 5 days relative to control; type: functional; settings: 120 h, time 5 day
Just the number please, in %, no unit attached.

Here's what some known entries look like.
- MOLECULE: "CC1(COc2ncc(C(F)(F)F)cn2)CCn2cc([N+](=O)[O-])nc2O1 (stereo not drawn)"
  MEASURED ON: "Leishmania donovani"
  inhibition in vivo at 50 mg/kg [%]: 35
- MOLECULE: "CC1(COc2ccc(C(F)(F)F)cn2)CCn2cc([N+](=O)[O-])nc2O1 (stereo not drawn)"
  MEASURED ON: "Leishmania donovani"
  inhibition in vivo at 50 mg/kg [%]: 96

// switching to the query molecule
Incoming: // returns reported inhibition in vivo at 50 mg/kg for input CC1(COc2ccc(Cl)cn2)CCn2cc([N+](=O)[O-])nc2O1 (stereo not drawn)
Outgoing: 14
